- target-or-test-system: Voltage-gated potassium channel subunit beta-2 (Rattus norvegicus)
- experiment-notes: enhancers of rat Kvbeta2 NADPH turnover – biochemical, NADPH fluorescence, primary screen (AID 623);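 note: fluorescence intensity change per second fitted from 20 to 320 s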
- experimental-context: Recombinant KvBeta, NADPH fluorescence decrease slope, 10 min; at 10 µM; active compounds read low
Answer each item with its documented NADPH fluorescence slope.
Answers are plain numbers.

INSERT INTO measurements (compound, reported) VALUES
  ('CCOc1ccc(N2CC(C(=O)Nc3cccc(C)c3C)CC2=O)cc1 (stereo not given)', '-1.8e-05'),
  ('CCOc1cc(/C=N/n2cnnc2)cc(Br)c1O', '-4.4e-06'),
  ('Cn1c(=O)[nH]c(=O)c2[nH]c(NCCCN3CCOCC3)nc21', '-1.9e-05'),
  ('O=C(CCN1C(=O)C2C3C=CC(C3)C2C1=O)NCCc1ccccc1Cl (stereo not given)', '-2.1e-05'),
  ('O=C(NCc1ccco1)c1ccc2c(=O)n(CC3CCCO3)c(=S)[nH]c2c1 (stereo not given)', '-2.2e-05'),
  ('COc1cccc(N(C(C)=O)c2nc(C)cc(C)c2C#N)c1', '-1.8e-05'),
  ('O=C(COC(=O)c1cnccn1)c1ccc(OC(=O)c2ccccc2)cc1', '-6.1e-05'),
  ('CCOC(=O)Cn1c(CN2CCN(c3cccc(Cl)c3)CC2)nc2c1c(=O)[nH]c(=O)n2C', '-1.7e-05');

Hi there! I need NADPH fluorescence slope for each item below, if you can.
1. CCC(C)NC(=O)c1ccccc1NC(=O)C(C)N(c1ccccc1)S(C)(=O)=O (stereo not given)
2. O=C(O)c1ccc2c3c(ncnc13)-c1ccccc1C2=O
3. COc1ccc(C2CC(c3ccc(OC)cc3)n3nc(N)nc3N2)cc1 (stereo not given)

*A*
1: 8.2e-06; 2: -4.9e-06; 3: -3.1e-05
